assay: Stability of (Z)-Endoxifen in acetone (HPLC peak table over time); format: physicochemical; details: acetone at reflux (56° C.), 3 hr
experimental_readout: HPLC peak RT 20.32, RRT 1.34 (%)
// note: answer is a bare numeric in %

Query: Entry CC/C(=C(\c1ccc(O)cc1)c1ccc(OCCNC)cc1)c1ccccc1 [(Z)-endoxifen] has what HPLC peak RT 20.32, RRT 1.34?
Result: 0.37

====

experiment: Solvent mixture solubility tests of (Z)-endoxifen; format: physicochemical; details: ethyl acetate/tetrahydrofuran 95/5 v/v, organic solvent or mixture, thermodynamic from solid, ethyl acetate/tetrahydrofuran 95/5 v/v; 100 mg/mL; high temperature; read-out: Solubility HT (100 mg/mL): Sol. HT
experimental_readout: solubility

Query: Entry CC/C(=C(\c1ccc(O)cc1)c1ccc(OCCNC)cc1)c1ccccc1 [(Z)-endoxifen] has what solubility?
Result: < 100 mg/mL
